Listed below: pIC50 values for each entry.
TARGET_OR_SYSTEM: TgIMPα (Toxoplasma gondii)
Sequence (A0A125YID0 1-545): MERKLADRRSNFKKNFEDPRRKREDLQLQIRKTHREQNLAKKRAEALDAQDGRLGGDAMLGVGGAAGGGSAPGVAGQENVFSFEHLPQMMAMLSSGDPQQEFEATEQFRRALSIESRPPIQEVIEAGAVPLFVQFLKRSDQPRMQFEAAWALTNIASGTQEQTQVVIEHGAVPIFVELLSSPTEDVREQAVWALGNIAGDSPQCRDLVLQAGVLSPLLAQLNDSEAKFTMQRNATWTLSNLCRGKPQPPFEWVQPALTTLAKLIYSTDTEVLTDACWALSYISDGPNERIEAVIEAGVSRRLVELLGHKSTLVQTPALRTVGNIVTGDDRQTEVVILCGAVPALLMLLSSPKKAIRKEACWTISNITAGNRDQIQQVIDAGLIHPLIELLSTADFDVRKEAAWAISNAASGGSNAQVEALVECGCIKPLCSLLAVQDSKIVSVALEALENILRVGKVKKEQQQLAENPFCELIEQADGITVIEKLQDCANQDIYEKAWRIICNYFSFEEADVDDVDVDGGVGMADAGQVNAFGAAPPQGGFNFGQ
TEST_DESCRIPTION: intrinsic tryptophan fluorescence quenching
Type: binding
The meaning of pIC50 here: minus log10 of the concentration in molar units.

CHEMICAL_STRUCTURE: Cc1ccc(S(=O)(=O)/C=C/C#N)cc1
OBSERVED: 4.76

Now take the following molecule into account.
Summary: CC(C)(C)c1ccc(S(=O)(=O)/C=C/C#N)cc1 , TgIMPα (Toxoplasma gondii), pIC50 = 4.56
